test system: SW1990 pancreatic adenocarcinoma cells [homozygous G12D]; test: Cancer cell line proliferation (CellTiter-Glo), SW1990; format: cell-based; conditions: 72 hr treatment, read-out: SW1990 CTG (EC50)
pEC50: −log10 of the molar value.

SMILES_NOTATION: C#Cc1cccc2cc(O)cc(-c3ncc4c(N5CC6CCC(C5)N6)nc(OCC5(CN6CCN(CC7CCN(Cc8ccc9c(c8)CN(C(=O)c8cc(C(C)C)c(O)cc8O)C9)CC7)CC6)CC5)nc4c3F)c12
pEC50: > 7.00

----------
Entries and their IC50
molecular target: KRAS(G12D)/SOS1 (Homo sapiens, UniProt P01116, G12D); assay: KRAS(G12D)/SOS1 homogeneous time-resolved fluorescence (HTRF) assay; conditions: absence of GTP; 4° C., 3 hr
Sequence (P01116 1-188 isoform P01116-2 G12D): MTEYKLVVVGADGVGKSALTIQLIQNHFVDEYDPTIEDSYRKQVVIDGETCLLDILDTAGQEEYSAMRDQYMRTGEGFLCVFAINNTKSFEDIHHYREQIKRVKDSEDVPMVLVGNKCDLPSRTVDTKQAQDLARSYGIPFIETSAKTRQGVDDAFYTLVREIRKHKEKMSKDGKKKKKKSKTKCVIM

MOLECULE: C#Cc1c(F)ccc2cc(O)cc(-c3ncc4c(N5CC6CCC(C5)N6)nc(OCC5(CN6CCC7(CCN(Cc8ccc(-n9c(C(=O)NC(C)C(F)(F)F)nnc9-c9cc(C(C)C)c(O)cc9O)cc8)CC7)CC6)CC5)nc4c3F)c12 (stereo not drawn) [Compound 183]
IC50: < 100 nM

MOLECULE: CCNC(=O)c1nnc(-c2cc(C(C)C)c(O)cc2O)n1-c1ccc(CN2CCN([C@H]3C[C@@H](COc4nc(N5CC6CCC(C5)N6)c5cnc(-c6cccc7ccccc67)c(F)c5n4)N(C)C3)CC2)cc1 [Compound 34]
IC50: > 1000 nM

MOLECULE: C#Cc1c(F)ccc2cc(O)cc(-c3ncc4c(N5CC6CNC(C6)C5)nc(OCC5(CN6CCC(C7CCN(Cc8ccc9c(c8)CN(C(=O)c8cc(O)c(C(C)C)cc8O)C9)CC7)CC6)CC5)nc4c3F)c12 (stereo not drawn) [Compound 187]
IC50: 100 to 1000 nM

MOLECULE: Cc1cccc2cccc(-c3ncc4c(N5CC6CCC(C5)N6)nc(OC[C@@H]5C[C@H](N6CCN(Cc7ccc8c(c7)CN(C(=O)c7cc(C(C)C)c(O)cc7O)C8)CC6)CN5C)nc4c3F)c12 [Compound 68]
IC50: > 1000 nM

MOLECULE: CC(C)c1cc(C(=O)N2Cc3ccc(CN4CCN(C[C@H]5CC[C@@H](COc6nc(N7CC8CCC(C7)N8)c7cnc(-c8cc(O)cc9ccccc89)c(F)c7n6)N5C)CC4)cc3C2)c(O)cc1O [Compound 64]
IC50: < 100 nM

MOLECULE: C#Cc1cccc2cc(O)cc(-c3ncc4c(N5CC6CCC(C5)N6)nc(OC[C@@H]5C[C@H](N6CCN(C(=O)C7CCN(Cc8ccc9c(c8)CN(C(=O)c8cc(C(C)C)c(O)cc8O)C9)CC7)CC6)CN5C)nc4c3F)c12 [Compound 97]
IC50: < 100 nM

MOLECULE: C#Cc1c(F)ccc2cc(O)cc(-c3ncc4c(N5CC6CCC(C5)N6)nc(OCC5(CN6CCN(CC7CCN(c8ccc(-n9c(C(=O)NCC)nnc9-c9cc(C(C)C)c(O)cc9O)cc8)CC7)CC6)CC5)nc4c3F)c12 [Compound 145]
IC50: < 100 nM

MOLECULE: CC(C)c1cc(-c2nnc(C(=O)NC(C)C(F)(F)F)n2-c2ccc(CN3CCN(C[C@H]4C[C@@H](COc5nc(N6CC7CCC(C6)N7)c6cnc(-c7cc(O)cc8ccccc78)c(F)c6n5)N(C)C4)CC3)cc2)c(O)cc1O (stereo partly drawn) [Compound 118]
IC50: < 100 nM

MOLECULE: C#Cc1cccc2cccc(-c3ncc4c(N5CC6CCC(C5)N6)nc(OC[C@@H]5CC[C@H](CN6CCN(Cc7ccc(-n8c(C(=O)NCC)nnc8-c8cc(C(C)C)c(O)cc8O)cc7)CC6)N5C)nc4c3F)c12 [Compound 16]
IC50: < 100 nM
